- Test system: RS4;11 (BCL-2 dependent acute lymphoblastic leukemia cell line)
- assay explanation: RS4;11 Cell Proliferation Assay
- Type: cell-based
- settings: Homo sapiens, RS4-11, RS4;11 cells, read-out: Cellular proliferation assay (IC50, nM) RS4
Classify: criterion met when IC50 is strictly less than 0.3 nM; criterion not met when IC50 is not.

Prompt: # check: IC50 < 0.3 nM for CC(C)c1ccccc1C1CN(Cc2cccc3c2OCCC3)CCN1C1CC2(CCN(c3ccc(C(=O)NS(=O)(=O)c4ccc(NC[C@H]5CC[C@](C)(O)CC5)c([N+](=O)[O-])c4)c(Oc4cnc5[nH]ccc5c4)c3)CC2)C1 (some centres unmarked) [Example 130]
Response: criterion not met

Prompt: Field entry: COc1ccc(CN2CCN(C3CC4(C3)CN(c3ccc(C(=O)NS(=O)(=O)c5ccc(NCC6CCOCC6)c([N+](=O)[O-])c5)c(Oc5cnc6[nH]cc(F)c6c5)c3)C4)[C@H](c3ccccc3C(C)C)C2)cc1 [Example 183]
Response: criterion met

Prompt: Field entry: COc1cc(CN2CCN(C3CC4(C3)CN(c3ccc(C(=O)NS(=O)(=O)c5ccc(NC[C@H]6CC[C@](C)(O)CC6)c([N+](=O)[O-])c5)c(Oc5cnc6[nH]cc(F)c6c5)c3)C4)[C@H](c3ccccc3C(C)C)C2)ccc1C1CCC1 [Example 341]
Response: criterion met

Prompt: Field entry: CC(C)c1ccccc1[C@@H]1CN(Cc2ccc(C3COC3)cc2)CCN1C1CC2(C1)CN(c1ccc(C(=O)NS(=O)(=O)c3ccc(NC[C@H]4CC[C@](C)(O)CC4)c([N+](=O)[O-])c3)c(Oc3cnc4[nH]cc(F)c4c3)c1)C2 [Example 362]
Response: criterion met

Prompt: Field entry: CC(C)c1ccccc1[C@H]1CN(Cc2cccc3c2OCCO3)CCN1C1CC2(C1)CN(c1ccc(C(=O)NS(=O)(=O)c3ccc(NC[C@H]4CC[C@](C)(O)CC4)c([N+](=O)[O-])c3)c(Oc3cnc4[nH]ccc4c3)c1)C2 [Example 149b]
Response: criterion not met

Prompt: Field entry: COc1cc(CN2CCN(C3CC4(CCN(c5ccc(C(=O)NS(=O)(=O)c6ccc(NC[C@H]7CC[C@](C)(O)CC7)c([N+](=O)[O-])c6)c(Oc6cnc7[nH]ccc7c6)c5)CC4)C3)[C@H](c3ccccc3C(C)C)C2)cc2c1OCCC2 [Example 302]
Response: criterion not met

Prompt: Field entry: CC(C)c1ccccc1C1CN(C2COC2)CCN1C1CC2(CCN(c3ccc(C(=O)NS(=O)(=O)c4ccc(NC[C@H]5CC[C@](C)(O)CC5)c([N+](=O)[O-])c4)c(Oc4cnc5[nH]ccc5c4)c3)CC2)C1 (some centres unmarked) [Example 6]
Response: criterion not met

Prompt: Field entry: COc1cc(CN2CCN(C3CC4(C3)CN(c3ccc(C(=O)NS(=O)(=O)c5ccc(NC[C@H]6CC[C@](C)(O)CC6)c([N+](=O)[O-])c5)c(Oc5cnc6[nH]cc(F)c6c5)c3)C4)[C@H](c3ccccc3C(C)C)C2)cc2c1OCCCO2 [Example 335]
Response: criterion met

###

- target or system: Recombinant human Bcl-2 protein (Homo sapiens (Human))
- assay explanation: Bcl-2 TR-FRET Assay
- Format: binding
- settings: Bcl-2 wild type, TR-FRET; read-out: Biochemical assay (IC50, nM) Bcl-2 WT
recorded metric: IC50 (nM)
Numbers only; they are read as nM.

Prompt: Please give the measured IC50 for this compound: `COc1cc(CN2CCN(C3CC4(C3)CN(c3ccc(C(=O)NS(=O)(=O)c5ccc(NC[C@H]6CC[C@](C)(O)CC6)c([N+](=O)[O-])c5)c(Oc5cnc6[nH]ccc6c5)c3)C4)[C@H](c3ccccc3C(C)C)C2)cc2c1OC(C)(C)CC2`
Response: 0.09

Prompt: Field entry: `COc1cc(CN2CCN(C3CC4(CCN(c5ccc(C(=O)NS(=O)(=O)c6ccc(NC[C@H]7CC[C@](C)(O)CC7)c([N+](=O)[O-])c6)c(Oc6cnc7[nH]ccc7c6)c5)CC4)C3)[C@H](c3ccccc3C(C)C)C2)ccc1C(C)C`
Response: 1.3

###

Assign IC50 to each entry below.
- System: RS4;11 (BCL-2 dependent acute lymphoblastic leukemia cell line)
- assay explanation: RS4;11 Cell Proliferation Assay
- Format: cell-based
- settings: Homo sapiens, RS4-11, RS4;11 cells, read-out: Cellular proliferation assay (IC50, nM) RS4
Numbers only; they are read as nM.

Prompt: Please give the measured IC50 for this molecule: CC(C)c1ccccc1C1CN(Cc2ccccc2)CCN1C1CC2(CCN(c3ccc(C(=O)NS(=O)(=O)c4ccc(NCC5(F)CCOCC5)c([N+](=O)[O-])c4)c(Oc4cnc5[nH]ccc5c4)c3)CC2)C1 (stereo not shown) [Example 27]
Response: 1.05

Prompt: Field entry: COc1cc(CN2CCN(C3CC4(C3)CN(c3ccc(C(=O)NS(=O)(=O)c5ccc(NC[C@H]6CC[C@](C)(O)CC6)c([N+](=O)[O-])c5)c(Oc5cnc6[nH]cc(F)c6c5)c3)C4)[C@H](c3ccccc3C(C)C)C2)ccc1NC(C)C [Example 360]
Response: 0.05

Prompt: Field entry: COc1ccc(OC2CCN(C3CC4(CCN(c5ccc(C(=O)NS(=O)(=O)c6ccc(NC[C@H]7CC[C@](C)(O)CC7)c([N+](=O)[O-])c6)c(Oc6cnc7[nH]ccc7c6)c5)CC4)C3)C(c3ccccc3C(C)C)C2)cc1 (stereo partly shown) [Example 138]
Response: 0.44

Prompt: Field entry: CC(C)c1ccccc1C1CN(Cc2ccc(S(C)(=O)=O)cc2)CCN1C1CC2(CCN(c3ccc(C(=O)NS(=O)(=O)c4ccc(NC[C@H]5CC[C@](C)(O)CC5)c([N+](=O)[O-])c4)c(Oc4cnc5[nH]ccc5c4)c3)CC2)C1 (stereo partly shown) [Example 82]
Response: 0.42

###

- Test system: RS4;11 (BCL-2 dependent acute lymphoblastic leukemia cell line)
- assay explanation: RS4;11 Cell Proliferation Assay
- Format: cell-based
- settings: Homo sapiens, RS4-11, RS4;11 cells, read-out: Cellular proliferation assay (IC50, nM) RS4
recorded metric: IC50 (nM)
Numbers only; they are read as nM.

Prompt: Please give the measured IC50 for this compound: COc1cc(CN2CCN(C3CC4(C3)CN(c3ccc(C(=O)NS(=O)(=O)c5ccc(NC[C@H]6CC[C@](C)(O)CC6)c([N+](=O)[O-])c5)c(Oc5cnc6[nH]ccc6c5)c3)C4)[C@H](c3ccccc3C(C)C)C2)cc2occc12 [Example 331]
Response: 0.16

Prompt: Field entry: CC(C)c1ccccc1[C@H]1CN(C(C)C)CCN1C1CC2(CCN(c3ccc(C(=O)NS(=O)(=O)c4ccc(NC[C@H]5CC[C@](C)(O)CC5)c([N+](=O)[O-])c4)c(Oc4cnc5[nH]ccc5c4)c3)CC2)C1 (single isomer, unassigned) [Example 3a]
Response: 3.67

Prompt: Field entry: CCc1ccc(CN2CCN(C3CC4(CCN(c5ccc(C(=O)NS(=O)(=O)c6ccc(NC[C@H]7CC[C@](C)(O)CC7)c([N+](=O)[O-])c6)c(Oc6cnc7[nH]ccc7c6)c5)CC4)C3)[C@H](c3ccccc3C(C)C)C2)cc1OC [Example 265]
Response: 0.15

Prompt: Field entry: COc1cc(CN2CCN(C3CC4(CCN(c5ccc(C(=O)NS(=O)(=O)c6ccc(NC[C@H]7CC[C@](C)(O)CC7)c([N+](=O)[O-])c6)c(Oc6cnc7[nH]ccc7c6)c5)CC4)C3)[C@H](c3ccccc3C(C)C)C2)cc2c1OCC2 [Example 239]
Response: 0.12

###

- target or system: Recombinant human Bcl-2 protein (Homo sapiens (Human), UniProt P10415)
- Sequence (P10415 whole entry): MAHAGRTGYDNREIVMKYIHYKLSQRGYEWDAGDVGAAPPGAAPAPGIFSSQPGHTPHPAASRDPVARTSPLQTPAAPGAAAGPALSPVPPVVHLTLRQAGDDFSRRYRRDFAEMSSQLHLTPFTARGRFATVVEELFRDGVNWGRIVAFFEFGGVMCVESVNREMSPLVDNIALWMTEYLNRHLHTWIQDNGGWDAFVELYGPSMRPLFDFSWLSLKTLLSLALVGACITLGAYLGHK
- assay explanation: Bcl-2 TR-FRET Assay
- Assay type: binding
- settings: Bcl-2 wild type, TR-FRET; read-out: Biochemical assay (IC50, nM) Bcl-2 WT
Assign log10 IC50 to each entry below.
Each number you see is log10 of IC50, and the unit inside the log is nM.

Prompt: Recorded log10 IC50 for CC(C)c1ccccc1C1CN(Cc2cccc3c2OCO3)CCN1C1CC2(CCN(c3ccc(C(=O)NS(=O)(=O)c4ccc(NC[C@H]5CC[C@](C)(O)CC5)c([N+](=O)[O-])c4)c(Oc4cnc5[nH]ccc5c4)c3)CC2)C1 (stereo partly shown) with Recombinant human Bcl-2 protein (Homo sapiens (Human), UniProt P10415), please?
Response: -1.01

Prompt: Field entry: CCc1cc(CN2CCN(C3CC4(CCN(c5ccc(C(=O)NS(=O)(=O)c6ccc(NC[C@H]7CC[C@](C)(O)CC7)c([N+](=O)[O-])c6)c(Oc6cnc7[nH]ccc7c6)c5)CC4)C3)C(c3ccccc3C(C)C)C2)ccc1OC (stereo partly shown)
Response: -0.38

Prompt: Field entry: COc1cc(CN2CCN(C3CC4(CCN(c5ccc(C(=O)NS(=O)(=O)c6ccc(NC[C@H]7CC[C@](C)(O)CC7)c([N+](=O)[O-])c6)c(Oc6cnc7[nH]ccc7c6)c5)CC4)C3)C(c3ccccc3C(C)C)C2)cc(OC)c1OC (stereo partly shown)
Response: -1.23

Prompt: Field entry: `COc1cc(CN2CCN(C3CC4(C3)CN(c3ccc(C(=O)NS(=O)(=O)c5ccc(NC[C@H]6CC[C@](C)(O)CC6)c([N+](=O)[O-])c5)c(Oc5cnc6[nH]cc(F)c6c5)c3)C4)[C@H](c3ccccc3C(C)C)C2)ccc1N1CCOCC1`
Response: -1.29

Prompt: Field entry: `COc1cc(CN2CCN(C3CC4(C3)CN(c3ccc(C(=O)NS(=O)(=O)c5ccc(NC[C@H]6CC[C@](C)(O)CC6)c([N+](=O)[O-])c5)c(Oc5cnc6[nH]cc(F)c6c5)c3)C4)[C@H](c3ccccc3C(C)C)C2)ccc1C1CCC1`
Response: 0.20

Prompt: Field entry: CC(C)c1ccccc1C1CN(Cc2ccc(F)cc2)CCN1C1CC2(CCN(c3ccc(C(=O)NS(=O)(=O)c4ccc(NC[C@H]5CC[C@](C)(O)CC5)c([N+](=O)[O-])c4)c(Oc4cnc5[nH]ccc5c4)c3)CC2)C1 (stereo partly shown)
Response: -0.64

Prompt: Field entry: `COc1cc(CN2CCN(C3CC4(C3)CN(c3ccc(C(=O)NS(=O)(=O)c5ccc(NC[C@H]6CC[C@](C)(O)CC6)c([N+](=O)[O-])c5)c(Oc5cnc6[nH]cc(F)c6c5)c3)C4)[C@H](c3ccccc3C(C)C)C2)ccc1C(C)C`
Response: 0.32

Prompt: Field entry: COc1ccc(CN2CCN(C3CC4(CCN(c5ccc(C(=O)NS(=O)(=O)c6ccc(NC[C@H]7CC[C@](C)(O)CC7)c([N+](=O)[O-])c6)c(Oc6cnc7[nH]ccc7c6)c5)CC4)C3)C(c3ccccc3CC(C)C)C2)cc1 (stereo partly shown)
Response: 0.34

Prompt: Field entry: `COc1cc(CN2CCN(C3CC4(CCN(c5ccc(C(=O)NS(=O)(=O)c6ccc(NC[C@H]7CC[C@](C)(O)CC7)c([N+](=O)[O-])c6)c(Oc6cnc7[nH]ccc7c6)c5)CC4)C3)[C@H](c3ccccc3C(C)C)C2)ccc1C1CCCC1`
Response: 0.51

Prompt: Field entry: CC(C)c1ccccc1[C@@H]1CN(Cc2cccc3c2OCCO3)CCN1C1CC2(CCN(c3ccc(C(=O)NS(=O)(=O)c4ccc(NC[C@H]5CC[C@](C)(O)CC5)c([N+](=O)[O-])c4)c(Oc4cnc5[nH]ccc5c4)c3)CC2)C1 [Example 79a]
Response: -0.96

Prompt: Field entry: COc1cc(CN2CCN(C3CC4(CCN(c5ccc(C(=O)NS(=O)(=O)c6ccc(NC[C@H]7CC[C@](C)(O)CC7)c([N+](=O)[O-])c6)c(Oc6cnc7[nH]cc(F)c7c6)c5)CC4)C3)C(c3ccccc3C(C)C)C2)ccc1C1CC1 (stereo partly shown)
Response: -0.38

Prompt: Field entry: CC(C)c1ccccc1[C@H]1CN(Cc2cccc3c2OCCO3)CCN1C1CC2(C1)CN(c1ccc(C(=O)NS(=O)(=O)c3ccc(NC[C@H]4CC[C@](C)(O)CC4)c([N+](=O)[O-])c3)c(Oc3cnc4[nH]ccc4c3)c1)C2 [Example 149b]
Response: -0.15

Prompt: Field entry: `COc1ccc(CN2CCN(C3CC4(C3)CN(c3ccc(C(=O)NS(=O)(=O)c5ccc(NC[C@H]6CC[C@](C)(O)CC6)c([N+](=O)[O-])c5)c(Oc5cnc6[nH]cc(F)c6c5)c3)C4)[C@H](c3ccccc3C(C)C)C2)nc1`
Response: -1.46

Prompt: Field entry: COc1ccc(CN2CCN(C3CC4(CCN(c5ccc(C(=O)NS(=O)(=O)c6ccc(NC[C@H]7CC[C@](C)(O)CC7)c([N+](=O)[O-])c6)c(Oc6cnc7[nH]ccc7c6)c5)CC4)C3)C(c3ccccc3C(C)C)C2)cc1F (stereo partly shown)
Response: -0.46

Prompt: Field entry: COc1ccc(CN2CCN(C3CC4(CCN(c5ccc(C(=O)NS(=O)(=O)c6ccc(NC[C@H]7CC[C@](C)(O)CC7)c([N+](=O)[O-])c6)c(Oc6cnc7[nH]ccc7c6)c5)CC4)C3)C(c3ccccc3C(C)C)C2)cc1OC(F)(F)F (stereo partly shown)
Response: 0.11

Prompt: Field entry: `COc1cc(CN2CCN(C3CC4(CCN(c5ccc(C(=O)NS(=O)(=O)c6ccc(NC[C@H]7CC[C@](C)(O)CC7)c([N+](=O)[O-])c6)c(Oc6cnc7[nH]cc(Cl)c7c6)c5)CC4)C3)[C@H](c3ccccc3C(C)C)C2)ccc1C1CC1`
Response: 0.08

Reference source for all entries: patent US20240376097A1
